Listed here are molecules together with their documented log10 LD50.
Assay: rat acute oral toxicity
Settings: in vivo
Values below are the log10 of the recorded LD50, with mg/kg as the unit.

1. c1ccc(OCC2CO2)cc1 (stereo not given) | 3.40
2. CC1(C)[C@H]2[C@H](O)OC(=O)[C@H]21 | 2.30
3. CC1=C(C(=O)Nc2ccccc2)SCCO1 | 2.63
4. CC(COCC(C)OC(=O)c1ccccc1)OC(=O)c1ccccc1 (stereo not given) | 3.52
5. Oc1ccccc1 | 2.50
6. OC[C@@H](O)[C@@H](O)CO | 4.12
7. O=C1OC(=O)C2C1C1(Cl)C(Cl)=C(Cl)C2(Cl)C1(Cl)Cl (stereo not given) | 3.33
8. Oc1c(Br)cc(Br)cc1Br | 3.17
9. CCCC(=O)Nc1ccc(OCC(O)CNC(C)C)c(C(C)=O)c1 (stereo not given) | 3.51
10. CC(=O)C1=C(C)[C@@H]2C[C@@]3(C1)[C@H](C)CC[C@H]3C2(C)C | 3.65

log10 LD50 recorded for this molecule, `C=C(C)C(=O)OCCCC` , is 4.20

Sure, the documented log10 LD50 for `CCCCC#N` is 2.52

The reported log10 LD50 of the molecule OCC1CO1 (stereo not given) was 2.62

Query `CC(C)C#N` yields log10 LD50 of 1.70

Noted for `S=c1sc2nc3ccccc3nc2s1` : its log10 LD50 reads 3.26
